Assayed Target: Neu5Ac(a2-6)Gal(b1-4)GlcNAc(b1-2)[Neu5Ac(a2-6)Gal(b1-4)GlcNAc(b1-6)]Man(a1-6)[Neu5Ac(a2-6)Gal(b1-4)GlcNAc(b1-2)Man(a1-3)][GlcNAc(b1-4)]Man(b1-4)GlcNAc(b1-4)GlcNAc
Experiment Summary: glycan array binding signal (z-score within array); higher = stronger binding
Condition Notes: glycan notation: IUPAC condensed, linker removed
The sample as a whole holds a higher share of the strongest signals than the screen did.
Observable: glycan array binding signal (z-score)

CBP21 (Serratia marcescens), O83009 (protein) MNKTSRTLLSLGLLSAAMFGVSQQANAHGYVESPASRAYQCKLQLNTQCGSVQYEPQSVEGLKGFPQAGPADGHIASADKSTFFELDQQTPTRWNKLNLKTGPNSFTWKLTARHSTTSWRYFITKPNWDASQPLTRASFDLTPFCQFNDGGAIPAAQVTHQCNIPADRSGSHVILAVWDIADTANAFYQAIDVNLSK | 0.063
EfCBM33A (Enterococcus faecalis), Q838S1 (protein) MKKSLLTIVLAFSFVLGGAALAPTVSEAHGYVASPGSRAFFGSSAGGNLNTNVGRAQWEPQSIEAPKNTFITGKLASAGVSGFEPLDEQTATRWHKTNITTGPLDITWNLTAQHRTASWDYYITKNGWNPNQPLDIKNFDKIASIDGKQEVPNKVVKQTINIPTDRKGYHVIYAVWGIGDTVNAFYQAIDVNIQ | 0.103
SfaEH (Escherichia coli), Q1RDG5 (protein) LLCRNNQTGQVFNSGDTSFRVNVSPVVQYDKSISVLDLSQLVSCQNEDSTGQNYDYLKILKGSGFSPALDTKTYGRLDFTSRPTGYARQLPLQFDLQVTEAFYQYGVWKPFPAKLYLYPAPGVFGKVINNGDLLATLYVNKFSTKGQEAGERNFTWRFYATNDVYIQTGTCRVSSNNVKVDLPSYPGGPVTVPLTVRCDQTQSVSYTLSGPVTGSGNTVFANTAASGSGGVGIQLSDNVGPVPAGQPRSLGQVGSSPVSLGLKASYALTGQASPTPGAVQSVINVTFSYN | -0.534
Epa6 (Candida glabrata), Q6DTM7_CANGB (protein) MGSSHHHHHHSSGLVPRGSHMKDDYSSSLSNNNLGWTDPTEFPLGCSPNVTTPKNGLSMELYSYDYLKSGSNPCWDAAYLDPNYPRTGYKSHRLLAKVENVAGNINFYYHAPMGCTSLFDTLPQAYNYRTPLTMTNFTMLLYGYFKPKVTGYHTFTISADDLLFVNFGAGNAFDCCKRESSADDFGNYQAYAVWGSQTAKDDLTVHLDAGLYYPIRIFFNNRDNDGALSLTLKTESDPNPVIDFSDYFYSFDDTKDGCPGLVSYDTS | -0.33
